Attribution: patent US10793549B2

# target.desc: EZH2 Y641F (Homo sapiens (Human), UniProt Q15910, Y641F)
# Sequence (Q15910 whole entry Y641F): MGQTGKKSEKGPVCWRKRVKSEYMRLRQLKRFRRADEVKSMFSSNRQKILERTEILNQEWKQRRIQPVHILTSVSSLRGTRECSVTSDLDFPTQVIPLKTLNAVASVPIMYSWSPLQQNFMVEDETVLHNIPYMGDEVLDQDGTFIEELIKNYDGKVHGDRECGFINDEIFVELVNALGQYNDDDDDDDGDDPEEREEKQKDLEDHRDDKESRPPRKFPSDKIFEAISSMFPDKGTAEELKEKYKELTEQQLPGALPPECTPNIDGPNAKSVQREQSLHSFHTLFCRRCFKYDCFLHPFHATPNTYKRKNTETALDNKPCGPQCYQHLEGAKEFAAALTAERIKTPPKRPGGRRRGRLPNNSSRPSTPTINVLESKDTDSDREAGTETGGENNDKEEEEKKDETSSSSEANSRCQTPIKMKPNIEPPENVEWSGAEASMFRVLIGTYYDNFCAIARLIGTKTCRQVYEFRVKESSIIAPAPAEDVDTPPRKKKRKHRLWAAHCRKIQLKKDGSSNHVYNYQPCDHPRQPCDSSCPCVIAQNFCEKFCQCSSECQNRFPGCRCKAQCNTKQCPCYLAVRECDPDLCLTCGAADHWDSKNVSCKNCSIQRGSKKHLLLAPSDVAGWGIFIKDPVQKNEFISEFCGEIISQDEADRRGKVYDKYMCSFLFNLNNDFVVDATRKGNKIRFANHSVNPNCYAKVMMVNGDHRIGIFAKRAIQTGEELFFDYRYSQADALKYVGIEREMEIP
# Sequence (O75530 whole entry partner): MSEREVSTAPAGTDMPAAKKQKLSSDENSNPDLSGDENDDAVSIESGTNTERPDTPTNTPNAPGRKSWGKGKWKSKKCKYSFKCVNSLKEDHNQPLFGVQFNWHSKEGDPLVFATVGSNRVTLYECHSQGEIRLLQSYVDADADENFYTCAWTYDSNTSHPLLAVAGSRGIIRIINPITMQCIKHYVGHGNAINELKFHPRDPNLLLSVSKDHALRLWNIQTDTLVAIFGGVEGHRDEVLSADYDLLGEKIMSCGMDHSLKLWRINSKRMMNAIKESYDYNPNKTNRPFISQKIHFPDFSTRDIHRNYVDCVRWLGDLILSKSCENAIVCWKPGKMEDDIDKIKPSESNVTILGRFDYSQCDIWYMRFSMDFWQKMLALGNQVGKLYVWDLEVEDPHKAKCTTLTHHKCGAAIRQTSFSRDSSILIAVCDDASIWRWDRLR
# Sequence (Q15022 whole entry partner): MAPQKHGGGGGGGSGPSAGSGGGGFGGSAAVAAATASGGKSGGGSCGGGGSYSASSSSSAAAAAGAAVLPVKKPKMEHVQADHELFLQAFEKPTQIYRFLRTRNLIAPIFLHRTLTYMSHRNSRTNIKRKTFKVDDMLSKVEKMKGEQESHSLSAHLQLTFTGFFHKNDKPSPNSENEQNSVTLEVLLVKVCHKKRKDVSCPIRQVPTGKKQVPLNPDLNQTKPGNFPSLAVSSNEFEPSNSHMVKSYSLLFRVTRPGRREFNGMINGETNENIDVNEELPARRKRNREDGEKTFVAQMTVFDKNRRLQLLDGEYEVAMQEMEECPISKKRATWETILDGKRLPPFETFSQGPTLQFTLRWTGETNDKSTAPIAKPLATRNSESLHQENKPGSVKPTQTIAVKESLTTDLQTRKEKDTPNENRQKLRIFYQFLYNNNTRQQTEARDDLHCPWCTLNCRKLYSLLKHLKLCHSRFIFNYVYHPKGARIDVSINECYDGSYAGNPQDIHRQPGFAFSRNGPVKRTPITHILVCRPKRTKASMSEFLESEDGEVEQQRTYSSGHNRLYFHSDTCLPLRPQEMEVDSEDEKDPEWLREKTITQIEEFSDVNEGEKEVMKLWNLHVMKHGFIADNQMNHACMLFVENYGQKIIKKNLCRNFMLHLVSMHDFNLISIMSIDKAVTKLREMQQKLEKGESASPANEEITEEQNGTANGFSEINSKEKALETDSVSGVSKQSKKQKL
# Sequence (Q09028 whole entry partner): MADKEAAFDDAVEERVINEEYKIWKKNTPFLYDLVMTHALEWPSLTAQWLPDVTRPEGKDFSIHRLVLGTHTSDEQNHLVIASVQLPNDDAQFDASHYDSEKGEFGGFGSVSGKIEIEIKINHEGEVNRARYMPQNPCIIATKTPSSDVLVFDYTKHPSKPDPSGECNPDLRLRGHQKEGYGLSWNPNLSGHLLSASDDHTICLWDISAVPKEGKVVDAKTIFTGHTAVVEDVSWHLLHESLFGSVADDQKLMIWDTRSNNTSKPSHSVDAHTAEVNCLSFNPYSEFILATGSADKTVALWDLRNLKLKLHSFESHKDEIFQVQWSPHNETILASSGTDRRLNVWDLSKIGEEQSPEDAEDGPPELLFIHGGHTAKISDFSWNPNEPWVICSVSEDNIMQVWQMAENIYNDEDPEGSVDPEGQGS
# Sequence (Q6ZN18 whole entry partner): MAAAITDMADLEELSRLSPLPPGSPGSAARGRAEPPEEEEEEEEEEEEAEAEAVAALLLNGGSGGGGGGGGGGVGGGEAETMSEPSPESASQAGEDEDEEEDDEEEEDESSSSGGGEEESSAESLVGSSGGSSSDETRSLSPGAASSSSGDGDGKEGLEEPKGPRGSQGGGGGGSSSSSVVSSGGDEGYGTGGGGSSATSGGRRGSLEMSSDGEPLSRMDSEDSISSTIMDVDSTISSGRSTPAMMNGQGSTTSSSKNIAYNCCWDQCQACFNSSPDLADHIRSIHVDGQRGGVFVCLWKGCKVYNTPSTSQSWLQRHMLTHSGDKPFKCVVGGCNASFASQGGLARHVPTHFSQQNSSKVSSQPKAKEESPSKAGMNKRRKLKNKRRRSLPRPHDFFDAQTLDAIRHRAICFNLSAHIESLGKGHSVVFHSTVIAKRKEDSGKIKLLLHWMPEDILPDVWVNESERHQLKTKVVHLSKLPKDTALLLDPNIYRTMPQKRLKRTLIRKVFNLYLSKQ
# protocol: In vitro methyltransferase activity test (LANCE Ultra)
# assay.setup: Recombinant PRC2 (EZH2-Y641F), 2.5 μM SAM/250 nM H3(1-50)K27me1, 3 hours, room temperature
endpoint.label: IC50 (nM)

a = C=CCC1(S(=O)(=O)n2cc(C)c3c(C(=O)NCc4c(OC)cc(C)[nH]c4=O)cc(-c4ccc(N)nc4)cc32)CC1
b = C#CCCS(=O)(=O)n1cc(C)c2c(C(=O)NCc3c(OC)cc(C)[nH]c3=O)cc(-c3ccc(N4CCN(C)CC4)nc3)cc21
QUERY: Identify the item whose IC50 is the smaller number: a or b Respond with the label that goes with your answer.
RESULT: a
(a: 16 nM, b: 196 nM)

P = C=CCC1(S(=O)(=O)n2cc(C)c3c(C(=O)NCc4c(OC)cc(C)[nH]c4=O)cc(-c4cnc(N5CC(F)C5)nc4)cc32)CC1
Q = C=CCC1(S(=O)(=O)n2cc(C)c3c(C(=O)NCc4c(C)cc(C)[nH]c4=O)cc(-c4cnc(N5CC(F)C5)nc4)cc32)CC1
QUERY: Of P and Q , whose reported IC50 is the larger number? Respond with the label that goes with your answer.
RESULT: Q
(Q: 32 nM, P: 9 nM)
